Cited source: ChEMBL document CHEMBL4689842

tested on: HEK-293T; experiment: Multiplex assay against HEK293T; type: toxicity, cell-based; details: human, 48 h, 1 µM, compound concentration 1 uM, replicate 1
Measured Population Apoptotic (%) accompanies every entry in the list below.

CN(C)CC#Cc1ccc(OCCCc2sc(N3CCc4cccc(C(=O)Nc5nc6ccccc6s5)c4C3)nc2C(=O)O)c(F)c1 : 33%
Cl.N#Cc1ccc2[nH]cc(CCCCN3CCN(c4ccc5oc(C(N)=O)cc5c4)CC3)c2c1 [VILAZODONE HYDROCHLORIDE] : 32%
c1cn2cc(-c3ccc4cn[nH]c4c3)nc(Nc3ccc(N4CCOCC4)cc3)c2n1 : 43%
Cc1c(-c2ccc(O)cc2)n(Cc2ccc(OCCN3CCCCCC3)cc2)c2ccc(O)cc12 : 39%
CC[C@H](C)C(=O)O[C@H]1C[C@@H](C)C=C2C=C[C@H](C)[C@H](CC[C@@H]3C[C@@H](O)CC(=O)O3)[C@H]21 : 49%
Cc1nc(-c2ccc(-c3ccc(C(=O)N4CCc5cc6c(cc54)C4(CCN(C)CC4)CO6)cc3)c(C)c2)no1 : 76%
CN(C)C(=O)/C(C#N)=C/c1ccc(-c2nc3cnc4[nH]ccc4c3n2C2CCCCC2)o1 : 45%
CN1CCN(CCOc2cc(OC3CCOCC3)c3c(Nc4c(Cl)ccc5c4OCO5)ncnc3c2)CC1 : 51%
Cc1[nH]c(/C=C2\C(=O)Nc3ccc(S(=O)(=O)N(C)c4cccc(Cl)c4)cc32)c(C)c1C(=O)N1CCN(C)CC1 : 55%
COc1cc(-n2cnc3cc(-c4ccc(Cl)cc4)sc3c2=O)ccc1OCCN1CCCC1 : 53%

[in] What does the data say about its Population Apoptotic (%)? Entry: Cc1csc2c(N[C@@H](C)CN3CCN(S(=O)(=O)c4ccc(Cl)c(Cl)c4)CC3)ncnc12
[out] 59%

[in] # lookup: Population Apoptotic (%) of CN(C)C(=O)N[C@H]1CC[C@H](CCN2CCN(c3cccc(Cl)c3Cl)CC2)CC1.Cl [CARIPRAZINE HYDROCHLORIDE]
[out] 29%

[in] Please report the recorded Population Apoptotic (%) for C=CC(=O)Nc1cccc(C(=O)Nc2ccc(Nc3cc(-c4[nH]c(SC)nc4C)ccn3)cc2)c1 .
[out] 38%

[in] Quick one: Population Apoptotic (%) for CC(C)NCC(O)COc1ccc(CCOCC2CC2)cc1.Cl (stereo not given) [BETAXOLOL HYDROCHLORIDE] ?
[out] 28%

[in] So what does the record say about Population Apoptotic (%) for CC(C)(O)CNc1ncc(-c2ccnc(Nc3ccnc(Cl)c3)n2)c(CC2CC2)n1 ?
[out] 40%
